- subject.of.test: human GLP-1 receptor (human, UniProt P43220 24-463)
- assay.info: cell-based or functional assay
Starred links: 1 amine or outer side, 2 acyl side, 3 side chain; linkers in the order of their positions; H or OH if unused. Non-standard residues stand in square brackets, D forms with d. Groups on a side chain read outwards from the residue. No end group written: not given here. *: point of attachment. C20 diacid = O=C(O)CCCCCCCCCCCCCCCCCCC(=O)*; C18 diacid = O=C(O)CCCCCCCCCCCCCCCCC(=O)*; γGlu = O=C(O)[C@H](CCC(=O)[*:2])N[*:1]; αMeF = C[C@](N)(Cc1ccccc1)C(=O)O; AEEA = NCCOCCOCC(=O)O; Aib = CC(C)(N)C(=O)O
endpoint: hGLP-1R EC50 (pM), cAMP

[[record]]
binder = "H[Aib]QGTFTSDVSK[αMeF]LDSRAAK([AEEA-AEEA-γGlu-C18 diacid])DFVQWIANT-NH2 (not fully specified) [Peptide 318]"
test_result = "55.2 pM"

[[record]]
binder = "H[Aib]HGS[αMeF]TSDVSK[αMeF]LDSR[Aib]AK([γGlu-C18 diacid])DFVESIANT-NH2 [Peptide 254]"
test_result = "102 pM"

[[record]]
binder = "H[Aib]QGTFTSDVSK[αMeF]LDSRAAK([AEEA-AEEA-γGlu-C18 diacid])DFVQ[Aib]LVAT-NH2 (not fully specified) [Peptide 315]"
test_result = "18.1 pM"

[[record]]
binder = "H[Aib]HGS[αMeF]TSDVSK[αMeF]LDSRAAK([AEEA-AEEA-C18 diacid])D[αMeF]VQ[Aib]IANT-NH2 [Peptide 272]"
test_result = "15.7 pM"

[[record]]
binder = "H[Aib]HGS[αMeF]TSDVSK[αMeF]LDSRAAK([AEEA-AEEA-γGlu-γGlu-C20 diacid])D[αMeF]IA[Aib]IAET-NH2 [Peptide 302]"
test_result = "151 pM"


Data origin, for the record: patent US20230357348A1
